experiment: Cytotoxicity against HepG2 cells, AlamarBlue viability assay, 48 hours; type: cell-based, human; details: human, HepG2 cells, read-out: HepG2 CC50 (this study)
reported_property: CC50 at 48 h

| molecule | reported_property | test_result |
| --- | --- | --- |
| CC1CS(=O)(=O)CCN1/N=C/c1ccc([N+](=O)[O-])o1 (stereo not drawn) [MMV001499, Nifurtimox, reference compound] | CC50 at 48 h | > 40 µM |
| C[C@]1(COc2ccc(N3CCC(Oc4ccc(OC(F)(F)F)cc4)CC3)cc2)Cn2cc([N+](=O)[O-])nc2O1 [MMV688262, Delamanid, reference compound] | CC50 at 48 h | > 40 µM |
| Oc1c(I)cc(I)c2cccnc12 [MMV002817, Iodoquinol, reference compound] | CC50 at 48 h | ~40 µM |

Data provenance: paper PMC6095626
